Cited source: paper PMC12040169

assay: in vitro; conditions: human, hela cells, % viability
EXPERIMENTAL ENDPOINT: viability at 28.5 h, 10 µM (%)
Give the value, in units of %, as a plain number.

Noted for O=C(Cc1ccccc1F)N1CCC(n2cnc3cccnc32)CC1 [CBK283635] : its viability at 28.5 h, 10 µM reads 87.7

In plain terms, COc1ccc(C(=O)NC(c2ccco2)c2cc(Cl)c3cccnc3c2O)cc1 (stereo not shown) [CBK263964] has a documented viability at 28.5 h, 10 µM of 91.9

Recorded viability at 28.5 h, 10 µM (compound CN1CCN(C(=O)CC[C@@H]2CNC(=O)[C@@H]3C[C@H](NC(=O)c4cccs4)CN23)CC1 [CBK289013] ): 124

The compound CCCC(=O)c1ccc(S(=O)(=O)N2CCN(Cc3cccc(F)c3C)CC2)cc1 [CBK063152] showed viability at 28.5 h, 10 µM equal to 88.4

Form field viability at 28.5 h, 10 µM, entry NCCC(=O)N(CCc1cc(C(F)(F)F)cc(C(F)(F)F)c1)c1cccc2ccccc12 [CBK000695T] : 0

Briefly, viability at 28.5 h, 10 µM measured for CN(C)CCNCc1ccccc1OC1CCCC1 [CBK278214C] : 111
